Data provenance: a protein production outcome set (Wang et al. 2014)

- Assay: label from the status in PepcDB records
Endpoint name: protein production

[
  {
    "Primary sequence": "MEWQAEQAYNHLPPLPLDSKLAELAETLPILKACIPARAALAELKQAGELLPNQGLLINLLPLLEAQGSSEIENIVTTTDKLFQYAQEDSQADPMTKEALRYRTALYQCFTQLSNRPLCVTTALEICSTIKSVQMDVRKVPGTSLTNQATGEVIYTPPAGESVIRDLLSNWEAFLHNQDDVDPLIKMAMAHYQFEAIHPFIDGNGRTGRVLNILYLIDQQLLSAPILYLSRYIVAHKQDYYRLLLNVTTQQEWQPWIIFILNAVEQTAKWTTHKIAAARELIAHTTEYVRQQLPKIYSHELVQVIFEQPYCRIQNLVESGLAKRQTASVYLKQLCDIGVLEEVQSGKEKLFVHPKFVTLMTKDSNQFSRYAL",
    "Result": "not failed"
  },
  {
    "Primary sequence": "MIIIMAGGKSSRMGREKPVLKIAGKEMLLWVYEQAEAVGEVLVALSRHTPRTRELCLREGIEFVDTPGRGYVKDVQWLLREFGPFISLSSDIPFVKSSDIYSLLKEFDGKVSLTGVLPLEVVPKDLTPYSYMGYAIVGINGVAKEGEKFFVFSNPLLALNVNTPRELELAKRVAEIIRVRGIRLEHHHHHH",
    "Result": "not failed"
  }
]

###

- Assay: label from the status in PepcDB records

[
  {
    "Primary sequence": "MKSASGQEKSIVVRRFDPARFVALVRKESLQAMRDPSTLLIALVLPLILLFLFAYAVSLDVRHVRIGVVLESPGATARTLADAFSGTHYLDVTFAYDRREVAGKLIAGELRGYVVIPQNFERHFADTGSPLVQIITDGSQPNTANFVANYAQGVVQTWMASLTETMPMPAVQLEPRYWFNPELASRRALVPGAIAIIMTIIGTLLTALVVAREWERGTMEAILSTPASVLEILVGKLLPYFVLGMLSTLIAAALAVFLFNVPLRGSLFALLVLSAVFMMPALGQGLLISSLARNQFLASQLALFSGYLPAFMLSGFLFEIDAMPALIRAITWLIPARYFVSSLKTIFLAGDVWSVFLPDLLGMATIGLIFFLIAQRYTRKSLE",
    "protein production": "failed"
  },
  {
    "Primary sequence": "MSLFIYEVLIRLFMTFILSLLLTPLVKLLAFRIGAYDAPGERRINTKNMPTAGGLAIYIAFASSCLLIFRSIIPQDYIWPIILAGGMVVLTGLIDDIKEITPMKKTIGILLAALVIYFVAGIRIDFVTLPVVGMIDLRWFSLPLTLLWILAITNAVNLIDGLDGLASGVSIIGLTTIGITGYFFLHAKTVYIPIVIFILVASIAGFFPYNFYPAKIFLGDTGALFLGFMIAVMSLQGLKNATFITVITPMVILGVPITDTVYAIIRRLLNKKPISSADKMHLHHRLLSLGFTHKGAVMTIYALALVFSFVSLLFSYSSTVASILLIVFCLIGLELFIELIGLVGEGHQPLMYLLRILGNREYRQEQMKKRLGKHSKRK",
    "protein production": "failed"
  },
  {
    "Primary sequence": "MPFINIKLVPENGGPTNEQKQQLIEGVSDLMVKVLNKNKASIVVIIDEVDSNNYGLGGESVHHLRQKN",
    "protein production": "failed"
  }
]
